Entry source: patent US9340577B2

This section presents molecules with their documented IC50 values.
Biological target: DR7 (DRB1*0701) (Homo sapiens, UniProt P01903+P01911, A100R/A102G/A103Q/D57E/D86V/E43K/F76Y/K127E/L162R/M171V/P40G/Q125H/Q99D/R33Q/R42Y/R54Q/S133A/S66F/T210M/V115G/Y107V/Y59L/Y89S)
Experiment: biochemical
Type: binding
Report as a plain number; the unit nM is understood.

- molecule: "CC(C)[C@H](NC(=O)[C@H](CCC(=O)O)NC(=O)[C@H](Cc1c[nH]c2ccccc12)NC(=O)[C@@H](NC(=O)CNC(=O)[C@@H](NC(=O)[C@H](CC(N)=O)NC(=O)CNC(=O)[C@H](Cc1ccc(O)cc1)NC(=O)[C@H](CCCCN)NC(=O)[C@@H](N)CCC(=O)O)[C@@H](C)O)[C@@H](C)O)C(=O)N[C@@H](Cc1c[nH]cn1)C(=O)N[C@@H](Cc1ccccc1)C(=O)NCC(=O)N[C@@H](CC(N)=O)C(=O)O [Peptide 1601.11]"
  IC50 [nM]: 91

Record summary for CC[C@H](C)[C@H](NC(=O)CNC(=O)[C@@H](NC(=O)[C@H](CCCCN)NC(=O)[C@H](Cc1ccc(O)cc1)NC(=O)[C@H](Cc1c[nH]c2ccccc12)NC(=O)[C@H](Cc1ccc(O)cc1)NC(=O)[C@@H](N)CC(C)C)[C@@H](C)O)C(=O)N[C@@H](CO)C(=O)N[C@@H](CC(N)=O)C(=O)N[C@H](C(=O)N[C@@H](CO)C(=O)N[C@@H](CCC(=O)O)C(=O)N[C@H](C(=O)N[C@@H](Cc1ccc(O)cc1)C(=O)O)C(C)C)[C@@H](C)CC [Peptide 89.0009] : reported IC50 = 19

----------
Biological target: DRB1*1101 (Homo sapiens, UniProt P01903+P01911, A100R/A169T/A87E/I96F/K41T/L162R/M171V/P40S/Q125H/Q178H/Q39Y/Q99D/R42S/S66Y/T262R/V115G/W38E)
Sequence (P01903 26-254 limits assumed, other chains not shown): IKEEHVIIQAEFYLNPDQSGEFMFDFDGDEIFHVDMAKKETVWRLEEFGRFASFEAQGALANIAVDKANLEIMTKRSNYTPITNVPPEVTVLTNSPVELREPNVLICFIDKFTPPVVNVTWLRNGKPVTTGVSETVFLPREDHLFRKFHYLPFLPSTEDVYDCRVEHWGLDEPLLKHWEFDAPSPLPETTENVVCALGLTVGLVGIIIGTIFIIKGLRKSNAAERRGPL
Test: biochemical
Settings: Binding affinity DRB1 *1101
No end group written: not given here.
result-type: IC50 (µM)
Hi! Could you send only the number? It should be in µM, unit omitted.

Recorded IC50, per entry:
- biosequence: "KERHVNANKRFHNIM [Peptide 1543.59]"
  IC50 (µM): 0.083
- biosequence: "GLYYWCDGEKIYFVK [Peptide 90.0226]"
  IC50 (µM): 9.14
- biosequence: "LIRLENAILFTAREH [Peptide 90.0002]"
  IC50 (µM): 5.69
- biosequence: "VVTIPNSVQISVGYM [Peptide 1601.41]"
  IC50 (µM): 4.22
- biosequence: "LNVLKTSNAKAAMLA [Peptide 89.0003]"
  IC50 (µM): 0.198
- biosequence: "PEWIDRLTVLQHSFN [Peptide 89.0070]"
  IC50 (µM): 2.64
- biosequence: "YFKYFKEDAAKYSKT [Peptide 90.0205]"
  IC50 (µM): 1.89
- biosequence: "QKCFKKKGITVTVQY [Peptide 90.0026]"
  IC50 (µM): 7.82
- biosequence: "VEFMSFLTALKRFLQ [Peptide 89.0015]"
  IC50 (µM): 0.044
- biosequence: "STWHWTGCNKNTGIL [Peptide 1601.38]"
  IC50 (µM): 0.662

Field IC50 (entry FKYFKEDAAKYSKTQ [Peptide 90.0206] ) reads 0.303

IC50 for EDLRTLQQLFLSTLS [Peptide 1543.21] is 0.279

Record VMAIFGVNPTVAEGF [Peptide 89.0080] . Reported IC50: 5.6

Lookup result for LNTVKIPNTVSVSTG [Peptide 89.0178] ; measured IC50: 0.976

The sequence NCILLYGPANTGKSY [Peptide 89.0087] showed IC50 equal to 8.05

----------
Target: A*0202 (Homo sapiens, UniProt P04439, D140Y/D185E/D98H/E176V/E277Q/G131W/G231S/I119L/I121R/I166T/I218V/L180W/L300P/L318F/N151K/N90K/P208A/P217A/Q67R/Q86G/Q94H/R138H/R169H/T345S)
Assay: biochemical
Format: binding
No end group written: not given here.
result-type: pIC50
Friendly reminder that pIC50 comes from taking -log10 of the concentration in mol/L.

Worked set:
- biosequence: "YLHNRLVVFT [Peptide 86.0075]"
  pIC50: 6.92
- biosequence: "KLTFLCVTL [Peptide 1516.14]"
  pIC50: 8.52
- biosequence: "ILNDTGFYT [Peptide 9013.0036]"
  pIC50: 7.85
- biosequence: "RILQHLLFA [Peptide 1525.24]"
  pIC50: 6.66
- biosequence: "VVWDSIYYI [Peptide 1578.53]"
  pIC50: 7.41

response.value for LLQQYCLYL [Peptide 1578.01] (field: pIC50) = 7.96

pIC50 in this record for ILQNDTGFYT [Peptide 9013.0147] : 6.73

Short answer for VQWAYDNEL [Peptide 86.0196] : pIC50 was 6.72

Record TLTTITVYA [Peptide 9013.0069] , field pIC50: 9.12

Entry ILQHTQELFI [Peptide 9013.0212] , pIC50 reported as 7.31

# pIC50 (sequence: VQWAYDNDV [Peptide 86.0190] ) is 7.05

The sequence AQYSWLIDGNV [Peptide 9013.0314] showed pIC50 equal to 7.21

Kindly note the recorded pIC50 for RILQQLLFA [Peptide 1525.14] , which is 7.17

Lab note: TVESTPFNV [Peptide 9013.0013] gave pIC50 of 5.72

----------
Molecular target: A*0202 (Homo sapiens, UniProt P04439, D140Y/D185E/D98H/E176V/E277Q/G131W/G231S/I119L/I121R/I166T/I218V/L180W/L300P/L318F/N151K/N90K/P208A/P217A/Q67R/Q86G/Q94H/R138H/R169H/T345S)
Test: biochemical
Format: binding
No end group written: not given here.
IC50 values by entry
Could you give me the number in nM? Just the number is fine.

A selection of reference data follows.
- biosequence: "ILYPNASLL [Peptide 9013.0030]"
  IC50 / nM: 1.8
- biosequence: "MTRNPPVPV [Peptide 1539.02]"
  IC50 / nM: 1140
- biosequence: "RILQRLLFV [Peptide 1525.27]"
  IC50 / nM: 1590

Record YVVWDSIYYI [Peptide 1578.52] , field IC50: 127

Sure, the documented IC50 for YACFVSNLAV [Peptide 9013.0248] is 754

get_value(item= STQELFIPNV [Peptide 9013.0181] , readout=IC50) returns 2100

Data point: PQYSWRINGV [Peptide 9013.0235] ; IC50 = 1330

The measured IC50 associated with SLLTFWNPPTV [Peptide 9013.0256] reads 54

For record KLITVSAEL [Peptide 9013.0084] the listed IC50 is 3.3

----------
Target: HLA-A3.2 (A*0301) (Homo sapiens, UniProt P04439)
Assay: biochemical
Assay type: binding
No end group written: not given here.
result-type: IC50 (µM)
Express the result in µM but write the number alone.

Previously resolved entries follow.
- biosequence: "KSFLKGTPKK [Peptide 88.0149]"
  IC50 / µM: 0.048
- biosequence: "RILSTCLGR [Peptide 9017.0073]"
  IC50 / µM: 0.058
- biosequence: "KQEAVRHFPR [Peptide 9017.0239]"
  IC50 / µM: 9.26

Now consider the entry below.
Log: HLA-A3.2 (A*0301) (Homo sapiens, UniProt P04439), sequence LTSQIEHWK [Peptide 88.0439] , IC50 = 4.94

----------
System: HLA-A24
Assay type: binding, human
Catalogue of binding to HLA-A24 (column 6; no allele head shown for these rows) values
The response must contain the number and no unit.

Examples from the recorded data:
- biosequence: "ALAETSYVKV"
  readout-number: 0
- biosequence: "AAISRKMVEL"
  readout-number: 0

Per the record, YVIKVSARV has binding to HLA-A24 (column 6; no allele head shown for these rows) of 0

binding to HLA-A24 (column 6; no allele head shown for these rows) recorded for this sequence, GASSLPTTM , is 0.0010

----------
# IC50 per record follows
Target: HLA-A11 (A*1101) (Homo sapiens, UniProt P04439, A114D/D185E/E176A/F33Y/L180Q/S129P/T187R)
Test: biochemical
Format: binding
Residues, ends and D or L forms follow the SMILES beside them.
Number only, in nM; omit the unit.

Examples with answers:
- compound: "CSCC[C@H](NC(=O)[C@@H](N)CCCCN)C(=O)N[C@@H](Cc1ccccc1)C(=O)N[C@@H](CS)C(=O)N[C@@H](CCC(N)=O)C(=O)N[C@@H](CC(C)C)C(=O)N[C@@H](C)C(=O)N[C@@H](CCCCN)C(=O)O [Peptide 1556.52]"
  measured-on: "HLA-A11 (A*1101) (Homo sapiens, UniProt P04439, A114D/D185E/E176A/F33Y/L180Q/S129P/T187R)"
  result-type: "IC50"
  endpoint-unit: "nM"
  readout-number: 22
- compound: "CC[C@H](C)[C@H](N)C(=O)N[C@@H](CO)C(=O)N[C@@H](Cc1ccccc1)C(=O)N[C@@H](C)C(=O)NCC(=O)N[C@H](C(=O)N[C@H](C(=O)N[C@H](C(=O)N[C@@H](CCCCN)C(=O)O)[C@@H](C)O)C(C)C)[C@@H](C)CC [Peptide 1589.17]"
  measured-on: "HLA-A11 (A*1101) (Homo sapiens, UniProt P04439, A114D/D185E/E176A/F33Y/L180Q/S129P/T187R)"
  result-type: "IC50"
  endpoint-unit: "nM"
  readout-number: 9.5
- compound: "CC(C)C[C@H](NC(=O)[C@H](CCCNC(=N)N)NC(=O)[C@H](Cc1ccccc1)NC(=O)CNC(=O)[C@@H](N)Cc1ccc(O)cc1)C(=O)NCC(=O)N[C@@H](Cc1ccccc1)C(=O)N[C@@H](CC(C)C)C(=O)N[C@@H](Cc1c[nH]cn1)C(=O)O [Peptide 1556.26]"
  measured-on: "HLA-A11 (A*1101) (Homo sapiens, UniProt P04439, A114D/D185E/E176A/F33Y/L180Q/S129P/T187R)"
  result-type: "IC50"
  endpoint-unit: "nM"
  readout-number: 19

We now examine a further compound.
The recorded IC50 for CC[C@H](C)[C@H](NC(=O)[C@H](CS)NC(=O)[C@H](CCCNC(=N)N)NC(=O)[C@@H](NC(=O)[C@@H](N)CC(C)C)[C@@H](C)CC)C(=O)N[C@H](C(=O)N[C@@H](CS)C(=O)N[C@@H](CCC(N)=O)C(=O)N[C@@H](CCCCN)C(=O)O)[C@@H](C)CC [Peptide 88.0298] (H-LIRCIICQK-OH) is 252
